target: Cytochrome P450 11B1, mitochondrial (Homo sapiens, UniProt P15538); assay: Inhibition of human CYP11B1 expressed in human renal leiomyoblastoma cells harboring FDXR/FDX using 1-deoxycortisol as substrate by HTRF assay
Sequence (P15538 whole entry): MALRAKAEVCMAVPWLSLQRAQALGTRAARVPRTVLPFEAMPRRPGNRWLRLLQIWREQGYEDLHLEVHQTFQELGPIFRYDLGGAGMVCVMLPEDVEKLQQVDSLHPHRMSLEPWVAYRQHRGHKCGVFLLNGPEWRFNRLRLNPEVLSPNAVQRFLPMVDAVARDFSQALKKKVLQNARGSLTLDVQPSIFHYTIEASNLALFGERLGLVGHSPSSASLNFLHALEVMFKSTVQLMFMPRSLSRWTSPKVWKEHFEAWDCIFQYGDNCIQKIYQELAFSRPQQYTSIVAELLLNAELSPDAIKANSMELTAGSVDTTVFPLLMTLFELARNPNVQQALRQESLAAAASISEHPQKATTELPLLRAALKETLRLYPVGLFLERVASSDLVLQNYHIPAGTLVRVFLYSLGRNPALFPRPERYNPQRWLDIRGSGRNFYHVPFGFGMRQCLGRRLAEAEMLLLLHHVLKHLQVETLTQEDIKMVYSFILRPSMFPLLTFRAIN

>  <molecule>
CC1CN(c2cccnc2)C(=O)c2ccc(Cl)cc21 (configuration not stated)

>  <unitAbbreviation>
µM

>  <inequalitySign>
=

>  <IC50>
2.59

$$$$
>  <molecule>
O=C1c2ccc(Cl)cc2CN1c1cccnc1

>  <unitAbbreviation>
µM

>  <inequalitySign>
=

>  <IC50>
10.7

$$$$
>  <molecule>
CN(C(=O)c1ccc(Cl)cc1F)c1cccnc1

>  <unitAbbreviation>
µM

>  <inequalitySign>
>

>  <IC50>
3

$$$$
>  <molecule>
Cc1cc(Cl)ccc1C(=O)Nc1cccnc1

>  <unitAbbreviation>
µM

>  <inequalitySign>
>

>  <IC50>
3

$$$$
>  <molecule>
CC(=O)N[C@@H]1CCCc2c1cncc2N1C(=O)c2ccc(Cl)cc2[C@H]1C1CC1

>  <unitAbbreviation>
µM

>  <inequalitySign>
=

>  <IC50>
22.8

$$$$
>  <molecule>
O=C(Nc1cccnc1)c1ccccc1Cl

>  <unitAbbreviation>
µM

>  <inequalitySign>
>

>  <IC50>
3

$$$$
>  <molecule>
N#Cc1ccc(C(=O)Nc2cccnc2)cc1

>  <unitAbbreviation>
µM

>  <inequalitySign>
>

>  <IC50>
3

$$$$
>  <molecule>
CCC(=O)N[C@@H]1CCCc2c1cncc2N1Cc2cc(Cl)ccc2C1=O

>  <unitAbbreviation>
µM

>  <inequalitySign>
=

>  <IC50>
5.21

$$$$
>  <molecule>
CS(=O)(=O)N[C@@H]1CCCc2c1cncc2N1CCc2cc(Cl)ccc2C1=O

>  <unitAbbreviation>
µM

>  <inequalitySign>
=

>  <IC50>
5.15

$$$$
>  <molecule>
CN(C(=O)c1ccc(C#N)cc1)c1cccnc1

>  <unitAbbreviation>
µM

>  <inequalitySign>
>

>  <IC50>
3

$$$$
>  <molecule>
O=C1c2ccc(Cl)cc2C(Cc2ccccc2)N1c1cccnc1 (configuration not stated)

>  <unitAbbreviation>
µM

>  <inequalitySign>
=

>  <IC50>
0.214

$$$$
>  <molecule>
CCC1c2cc(Cl)ccc2C(=O)N1c1cccnc1 (configuration not stated)

>  <unitAbbreviation>
µM

>  <inequalitySign>
=

>  <IC50>
3.34

$$$$
>  <molecule>
CC[C@H]1c2cc(Cl)ccc2C(=O)N1c1cncc2c1CCC[C@H]2NC(C)=O

>  <unitAbbreviation>
µM

>  <inequalitySign>
=

>  <IC50>
3.63

$$$$
>  <molecule>
CC(=O)N[C@@H]1CCCc2c1cncc2N1C(=O)c2ccc(Cl)cc2[C@@H]1C1CC1

>  <unitAbbreviation>
µM

>  <inequalitySign>
>

>  <IC50>
30

$$$$
>  <molecule>
O=C(Nc1cccnc1)c1ccc(Cl)cc1

>  <unitAbbreviation>
µM

>  <inequalitySign>
>

>  <IC50>
3

$$$$
>  <molecule>
CCC(=O)N[C@@H]1CCCc2c1cncc2N1C(=O)c2ccc(Cl)cc2[C@@H]1CC

>  <unitAbbreviation>
µM

>  <inequalitySign>
=

>  <IC50>
0.345

$$$$
>  <molecule>
Cc1cc(Cl)ccc1C(=O)N(C)c1cccnc1

>  <unitAbbreviation>
µM

>  <inequalitySign>
>

>  <IC50>
3

$$$$

# credit: ChEMBL document CHEMBL4616681
